- SUBJECT_OF_TEST: LecA (Pseudomonas aeruginosa)
- Construct: made in house; host or cells: E. coli BL21 (DE3), plasmid pET25pa11
- ASSAY_NOTES: Library screening using the FP competitive binding assay (three concentrations)
- RECORDED_CONDITIONS: read-out: Activity [%] (% inhibition relative to 500 µM pNPGal)
ASSAY_METRIC: inhibition at 100 µM

Q: Item Cc1ccc(C(=O)c2cc(N)c(O)c(O)c2)cc1 [compound 8] has what recorded inhibition at 100 µM?
Result: 7.9%

Q: What do we get for O=C(c1cc(O)c(O)c([N+](=O)[O-])c1)c1nc2ccccc2[nH]1 [compound 28] ?
Result: 26.7%

Q: Please answer likewise for Nc1cc(Cl)ccc1-c1nc(-c2cc(O)c(O)c([N+](=O)[O-])c2)cs1 [compound 17]
Result: 15.2%

Q: What do you get for CCOC(=O)c1cc(O)c(O)c([N+](=O)[O-])c1 [compound 20] ?
Result: 14%

Q: Let us now turn to Cc1ccc(C(=O)c2cc(O)c(O)c(C#N)c2)cc1 [compound 12]
Result: 20.2%

Q: Now consider CC(=O)c1cc(O)c(O)c([N+](=O)[O-])c1 [compound 19] .
Result: 31.5%

----------
- SUBJECT_OF_TEST: LecA (Pseudomonas aeruginosa, UniProt Q05097)
- Construct: made in house; host or cells: E. coli BL21 (DE3), plasmid pET25pa11
- Sequence (Q05097 whole entry): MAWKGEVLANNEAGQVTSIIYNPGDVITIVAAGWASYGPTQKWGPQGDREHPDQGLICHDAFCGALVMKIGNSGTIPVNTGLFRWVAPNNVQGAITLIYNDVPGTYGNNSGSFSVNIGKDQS
- ASSAY_NOTES: biochemical
- Type: binding
- RECORDED_CONDITIONS: IC50, extended dose-response analysis, 20% DMSO, no 2-mercaptoethanol, three experiments
Please respond with reported IC50 for every item in the list.
Report the value in µM with no unit label.

Q: Request the reported IC50 associated with "Cc1ccccc1C(=O)c1cc(O)c(O)c([N+](=O)[O-])c1"
Result: 116

Q: Same question, "COC(=O)c1cccc(C(=O)c2cc(O)c(O)c([N+](=O)[O-])c2)c1" this time
Result: 279

Q: Also check "CC(C)(C)c1ccc(C(=O)c2cc(O)c(O)c([N+](=O)[O-])c2)cc1"
Result: 144

Q: Now consider "O=C(c1cc(O)c(O)c([N+](=O)[O-])c1)c1ccnc2ccccc12" and answer again.
Result: 174

Q: Next entry: "Cc1ccc(C(=O)C(=O)c2cc(O)c(O)c([N+](=O)[O-])c2)cc1"
Result: 128

----------
Please go through the items and note down their IC50.
- SUBJECT_OF_TEST: LecA (Pseudomonas aeruginosa, UniProt Q05097)
- Construct: made in house; host or cells: E. coli BL21 (DE3), plasmid pET25pa11
- ASSAY_NOTES: biochemical
- Type: binding
- RECORDED_CONDITIONS: IC50, extended dose-response analysis, 20% DMSO, no 2-mercaptoethanol, three experiments
State the answer as a number, implicitly in µM.

Q: What IC50 value was documented for this molecule, O=C(C(=O)c1cc(O)c(O)c([N+](=O)[O-])c1)c1ccccc1 [RO0621161] ?
Result: 153

Q: And for CCCCCOC(=O)c1cccc(C(=O)c2cc(O)c(O)c([N+](=O)[O-])c2)c1 [compound 34] ?
Result: 63

Q: Please give the result for CCCNC(=O)c1ccc(C(=O)c2cc(O)c(O)c([N+](=O)[O-])c2)cc1 [RO0620570] too.
Result: 347

Q: Now consider COC(=O)c1ccc(C(=O)c2cc(O)c(O)c([N+](=O)[O-])c2)cc1 [RO0621265] and answer again.
Result: 330

Q: Now consider C=CCOC(=O)c1ccc(C(=O)c2cc(O)c(O)c([N+](=O)[O-])c2)cc1 [compound 32] and answer again.
Result: 56

Q: And the next one, O=C(c1ccc(F)cc1)c1cc(O)c(O)c([N+](=O)[O-])c1 [RO0407028] ?
Result: 370

Q: Do the same for CCCCNC(=O)c1cccc(C(=O)c2cc(O)c(O)c([N+](=O)[O-])c2)c1 [RO0621006] please
Result: 283

Q: Try the molecule Cc1ccc(C(=O)c2cc(O)c(O)c(-c3nc(C)no3)c2)cc1 [compound 13]
Result: 346

Q: Now try Cc1c(C(=O)c2cc(O)c(O)c([N+](=O)[O-])c2)[nH]c2ccc(Br)cc12 [compound 30] .
Result: 43

Q: // repeat for O=C(c1cc(O)c(O)c([N+](=O)[O-])c1)c1cncc2ccccc12 [RO0408176] and report
Result: 449

Q: Now the same for CC(C)OC(=O)c1cccc(C(=O)c2cc(O)c(O)c([N+](=O)[O-])c2)c1 [RO0621109]
Result: 156

Q: Please do the same for CCN(CC)C(=O)c1cccc(C(=O)c2cc(O)c(O)c([N+](=O)[O-])c2)c1 [RO0621115] as well.
Result: 229

Q: Also CCCN(CCC)C(=O)c1c(Br)cc(O)c(O)c1[N+](=O)[O-] [RO0627603] ?
Result: 285

Q: Further, for COC(=O)/C=C/c1cccc(C(=O)c2cc(O)c(O)c([N+](=O)[O-])c2)c1 [RO0619973] ?
Result: 258

Q: O=C(c1cccc(F)c1)c1cc(O)c(O)c([N+](=O)[O-])c1 [RO0412713] , same question.
Result: 675

Q: Same lookup for Cc1ccc(C(=O)c2cc(O)c(O)c(S(=O)(=O)C(F)(F)F)c2)cc1 [RO0616411] , please.
Result: 338

Q: Same for C=CCOC(=O)c1cccc(C(=O)c2cc(O)c(O)c([N+](=O)[O-])c2)c1 [RO0620810]
Result: 139

Q: Further, for O=C(c1cccc(CO)c1)c1cc(O)c(O)c([N+](=O)[O-])c1 [RO0623430] ?
Result: 446

Q: Also check CC(C)(C)COC(=O)c1cccc(C(=O)c2cc(O)c(O)c([N+](=O)[O-])c2)c1 [RO0626777]
Result: 206

Q: Next record, please: Cc1ccc(C(=O)c2ccc(O)c(O)c2[N+](=O)[O-])cc1 [RO0614977]
Result: 154

Q: Also check O=C(OCCC(O)C(F)(F)F)c1cccc(C(=O)c2cc(O)c(O)c([N+](=O)[O-])c2)c1 (stereo not shown) [RO0622624]
Result: 135

Q: Similarly, Cc1ccc(C(=O)c2cc([N+](=O)[O-])c(O)c(O)c2Cl)cc1 [compound 15] ?
Result: 58

Q: Then N#Cc1ccccc1C(=O)c1cc(O)c(O)c([N+](=O)[O-])c1 [RO0413268] ?
Result: 214

Q: Next molecule: O=C(c1ccncc1)c1cc(O)c(O)c([N+](=O)[O-])c1 [RO0403499]
Result: 597

Q: Same for CCCCOC(=O)c1cccc(C(=O)c2cc(O)c(O)c([N+](=O)[O-])c2)c1 [RO0626778]
Result: 117

Q: Same read-out for O=C(NCc1ccccc1)c1cccc(C(=O)c2cc(O)c(O)c([N+](=O)[O-])c2)c1 [RO0626786] ?
Result: 356

Q: Let us now turn to CCCNC(=O)c1cccc(C(=O)c2cc(O)c(O)c([N+](=O)[O-])c2)c1 [RO0621005]
Result: 422

Q: What do you have for CCCN(CCC)C(=O)c1cccc(C(=O)c2cc(O)c(O)c([N+](=O)[O-])c2)c1 [RO0621116] ?
Result: 173

Q: // query: O=C(c1cc(O)c(O)c([N+](=O)[O-])c1)c1c(F)cccc1F [compound 33]
Result: 94

Q: Now the same for CC(O)CCOC(=O)c1cccc(C(=O)c2cc(O)c(O)c([N+](=O)[O-])c2)c1 (stereo not shown) [RO0621239]
Result: 192

Q: Then what about the molecule O=C(NCC1CC1)c1cccc(C(=O)c2cc(O)c(O)c([N+](=O)[O-])c2)c1 [RO0621004] ?
Result: 363

Q: Another: O=C(NC1CCCCC1)c1cccc(C(=O)c2cc(O)c(O)c([N+](=O)[O-])c2)c1 [RO0626783]
Result: 430

Q: Now consider CC(C)c1ccc(C(=O)c2cc(O)c(O)c([N+](=O)[O-])c2)cc1 [RO0615928] .
Result: 129

----------
- SUBJECT_OF_TEST: LecA (Pseudomonas aeruginosa, UniProt Q05097)
- Construct: made in house; host or cells: E. coli BL21 (DE3), plasmid pET25pa11
- ASSAY_NOTES: biochemical
- Type: binding
- RECORDED_CONDITIONS: IC50 in presence of 0.057% Triton X-100, FP assay, 0.057% Triton X-100, one replicate
Kindly state pIC50 for each of the entries shown.
Note: pIC50 values are expressed as the negative base-10 logarithm of concentration in M.

Q: # query: pIC50 of entry "O=C(c1cc(O)c(O)c([N+](=O)[O-])c1)c1c(F)cccc1F"
Result: 4.04

Q: # repeat for "O=C(OCc1ccccc1)c1ccc(C(=O)c2cc(O)c(O)c([N+](=O)[O-])c2)cc1"
Result: 4.80

Q: For "Cc1ccc(C(=O)c2cc([N+](=O)[O-])c(O)c(O)c2Cl)cc1" then?
Result: 4.25

Q: One more compound: "C=CCOC(=O)c1ccc(C(=O)c2cc(O)c(O)c([N+](=O)[O-])c2)cc1"
Result: 4.30

Q: For "CCCCCOC(=O)c1cccc(C(=O)c2cc(O)c(O)c([N+](=O)[O-])c2)c1" then?
Result: 4.21

Q: Now try "CCCCCOC(=O)c1ccc(C(=O)c2cc(O)c(O)c([N+](=O)[O-])c2)cc1" .
Result: 4.18
